Each recorded value in this set is attributed to patent US20260028354A1.

# Dmax per record follows
# Measurement target: ER in MCF-7 cells (Homo sapiens (Human), UniProt P03372)
# Sequence (P03372 whole entry): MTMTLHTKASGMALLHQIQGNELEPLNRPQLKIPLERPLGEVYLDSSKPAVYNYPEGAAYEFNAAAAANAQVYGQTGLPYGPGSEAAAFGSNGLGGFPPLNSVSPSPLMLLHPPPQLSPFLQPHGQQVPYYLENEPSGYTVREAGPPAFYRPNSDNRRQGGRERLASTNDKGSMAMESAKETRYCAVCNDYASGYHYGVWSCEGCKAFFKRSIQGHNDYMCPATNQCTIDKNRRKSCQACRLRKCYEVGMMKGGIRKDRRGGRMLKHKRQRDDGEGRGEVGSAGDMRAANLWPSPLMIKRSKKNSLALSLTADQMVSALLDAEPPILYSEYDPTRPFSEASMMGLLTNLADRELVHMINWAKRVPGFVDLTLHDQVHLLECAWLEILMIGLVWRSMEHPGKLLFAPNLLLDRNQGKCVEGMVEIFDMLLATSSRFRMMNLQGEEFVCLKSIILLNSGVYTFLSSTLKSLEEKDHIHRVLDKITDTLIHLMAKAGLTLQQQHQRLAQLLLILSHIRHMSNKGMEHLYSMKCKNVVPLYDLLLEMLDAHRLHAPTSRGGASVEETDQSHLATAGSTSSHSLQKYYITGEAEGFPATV
# Measurement description: In-cell Western (ICW) ER degradation assay in MCF-7 cells
# Assay type: cell-based
# Measurement context: MCF7, MCF-7, maximal ER degradation, 16 hrs treatment; read-out: MCF7 Dmax

Worked examples, 5 compounds total:
compound="COc1cc(N2CCC3(CC2)CC(CN2CCC(c4ccc(N[C@H]5CCC(=O)NC5=O)cc4)CC2)C3)c(F)cc1[C@@H]1c2ccc(O)cc2CC[C@@H]1c1ccccc1 (single isomer, unassigned)" reported="50 to 75%"
compound="COc1cc(N2CCC3(CC2)CC(CN2CCN4c5ccc6c(c5OC[C@H]4C2)CN([C@H]2CCC(=O)NC2=O)C6=O)C3)ccc1[C@@H]1c2ccc(O)cc2CC[C@@H]1c1ccccc1 (single isomer, unassigned)" reported="> 75%"
compound="COc1cc(N2CCC3(CC2)CC(CN2CCN4c5ccc(C(=O)N[C@H]6CCC(=O)NC6=O)nc5OCC4C2)C3)ccc1[C@@H]1c2ccc(O)cc2CC[C@@H]1c1ccccc1 (stereo in doubt)" reported="50 to 75%"
compound="O=C1CC[C@H](NC(=O)c2ccc3c(n2)OC[C@H]2CN(C[C@@H]4COC5(CCN(c6ccc([C@H]7c8ccc(O)cc8CC[C@H]7c7ccccc7)cc6)CC5)C4)CCN32)C(=O)N1 (single isomer, unassigned)" reported="50 to 75%"
compound="O=C1CC[C@H](N2Cc3cc4c(cc3C2=O)OC[C@@H]2CN(CC3CCC5(CC3)CN(c3ncc([C@@H]6c7ccc(O)cc7CC[C@@H]6c6ccccc6)cn3)C5)CCN42)C(=O)N1 (single isomer, unassigned)" reported="50 to 75%"

Query :: Need Dmax of COc1cc([C@H]2c3ccc(O)cc3CC[C@H]2c2ccccc2)c(F)cc1N1CCC2(CC1)CC(CN1CCN3c4ccc5c(c4OC[C@H]3C1)CN([C@H]1CCC(=O)NC1=O)C5=O)C2 , thanks.
Result :: 25 to 50%

Query :: Need Dmax of COc1cc(N2CCC3(CC2)CC(CN2CCC(c4ccc(N[C@H]5CCC(=O)NC5=O)cc4F)CC2)C3)ccc1[C@@H]1c2ccc(O)cc2CC[C@@H]1c1ccccc1 (single isomer, unassigned) , thanks.
Result :: 50 to 75%

Query :: Need Dmax of O=C1CC[C@H](N2Cc3cc4c(cc3C2=O)OC[C@@H]2CN(CC3CC5(CCN(c6ccc([C@H]7c8ccc(O)cc8CC[C@H]7c7ccccc7)cc6F)CC5)C3)CCN42)C(=O)N1 (single isomer, unassigned) , thanks.
Result :: > 75%

Query :: Need Dmax of O=C1CC[C@H](Nc2ccc(C3CCN(C[C@H]4COC5(CCN(c6ccc([C@@H]7c8ccc(O)cc8CC[C@@H]7c7ccccc7)cc6)CC5)C4)CC3)cc2)C(=O)N1 (single isomer, unassigned) , thanks.
Result :: 25 to 50%

====

# DC50 per record follows
# Measurement target: ER (Homo sapiens (Human), UniProt P03372)
# Sequence (P03372 whole entry): as above
# Measurement description: In-cell western blot analysis of ER for "B" compounds
# Format: cell-based
# Measurement context: 16 hours, read-out: ICW DC50
# Protocol: R^T 2h, gentle shaking. […]

Query :: Need DC50 of CN(C(=O)c1ccc2c(c1)OC[C@@H]1CN(CC3CC4(CCN(c5ccc([C@@H]6c7ccc(O)cc7CC[C@@H]6c6ccccc6)cc5)CC4)C3)CCN21)C1CCC(=O)NC1=O (some centres unmarked) , thanks.
Result :: > 100 nM

Query :: Need DC50 of O=C1CCC(N2Cc3cc4c(cc3C2=O)CN(CC2COC3(CCN(c5ccc([C@@H]6c7ccc(O)cc7CC[C@@H]6c6ccccc6)cc5)CC3)OC2)C4)C(=O)N1 (some centres unmarked) , thanks.
Result :: 10 to 100 nM

Query :: Need DC50 of O=C1CCC(N2Cc3cc4c(cc3C2=O)OC[C@@H]2CN(C3CN(C5CCN(c6ccc([C@@H]7c8ccc(O)cc8CC[C@@H]7c7ccccc7)cc6)CC5)C3)CCN42)C(=O)N1 (some centres unmarked) , thanks.
Result :: < 10 nM

Query :: Need DC50 of CN(C(=O)c1ccc2c(c1)OC[C@H]1CN(CC3CCN(c4ccc([C@@H]5c6ccc(O)cc6CC[C@@H]5c5ccccc5)cc4)CC3)CCN21)C1CCC(=O)NC1=O (some centres unmarked) , thanks.
Result :: 10 to 100 nM

Query :: Need DC50 of O=C1CCC(N2Cc3cc4c(cc3C2=O)OC[C@@H]2CN(C(=O)[C@H]3CC[C@H](CN5CCN(c6ccc([C@@H]7c8ccc(O)cc8CC[C@@H]7c7ccccc7)cc6)CC5)CC3)CCN42)C(=O)N1 (some centres unmarked) , thanks.
Result :: < 10 nM
